assay: soluble on expression in E. coli; label from the status in PepcDB or PDB records
test.readout: soluble on expression in E. coli

{"columns": ["residues", "observed.value"],
 "data": [
  ["MGSDKIHHHHHHMITKEDIVADVVTDYPKSADIFRNAGIDFCCGGQESIASAVNHKPNIDLNSLLNKLNHIDNTEGNSTINPKFLNVESLIQYIQSAYHETLKEEFKNLTPYMTKLAKVHGPSHPYLLKLQDLYREFRDSMLDHIRKEDEEDFPKLIQYSQGQDVQNIKIILEDLINDHEDTGQLLNVMNQLTSDYQTPEEACGTWKLVYQRLQNIERQTHQHVHLENHVLFKKVS", "not soluble"],
  ["MPEQDIASLISEHRILLEEAVREVIRRYPQSLSPSENFSKHIFSSEQLKNIIDTVLAEAWQQSAMVVITLCDEKGECVLTYRMPGTSAEDIAVAGRAAEAAVSFAKENKQIIDPTLHNVIGGIDTSRGGCVVYCAGKVIGGIGISGASAEKNHLIALRAVDSLKSGSQK", "not soluble"],
  ["MDFYYLPGSAPCRAVQMTAAAVGVELNLKLTNLMAGEHMKPEFLKINPQHCIPTLVDNGFALWESRAICTYLAEKYGKDDKLYPKDPQKRAVVNQRLYFDMGTLYQRFADYYYPQIFAKQPANAENEKKMKDAVDFLNTFLDGHKYVAGDSLTIADLTVLATVSTYDVAGFELAKYPHVAAWYERTRKEAPGAAINEAGIEEFRKYFEK", "soluble"],
  ["MKTSPRSNRLHIALFGKRNSGKSSLINALTNQNAALVSDIAGTTTDPVYQPMEIHGIGPCVFIDTAGFDDEGELGSLRIERTLQAADKADIALMVCCDTELSEEQRWIELLKERNIPYLLVLNKADLLEKPDEVADKLEQQTGQHPLIVSAKEKTGIDSIRQSILHRLPELNEQPDIVGDLANEGDVVLLVMPQDIQAPKGRLILPQVQTLRELLDKKCITLSCTTDQLDNALKALSVPPSLIITDSQVFRTVYEKKPPQSRLTSFSVLFARYKGDIDYYTEGAYIIDQLTENSRVLIAEACTHAPLSEDIGRVKLPRMLRKRIGEKLHIDIVSGNDFPKDLNCYDLIIHCGACMFNRKHVLNRIVKAKAQGVPMTNYGIVIAYINGIPFH", "soluble"],
  ["MIDISVVIPLLNEAESIPELFAWIRRVMNEHGYSYEVIFVDDGSTDGSWSVIERLQAEHPEVKGIKFRRNYGKSAGLQCGFARTQGQVVITMDADLQDSPDEIPELYRMVTEGGYDLVSGWKRKRYDPLFSKNLPSKLFNATARKLSGIKLHDFNCGLKAYRHEVVENIELYNDMHRYIPYLAKSAGFGRIGEKVVQHQARKYGSSKFGISRFFNGYLDLLTLWFISKFGRKPMH", "not soluble"]
]}

// switching to the query sequence
For this sequence ( MGSDKIHHHHHHLRILNTAATGVRAQQTALDVLGNNMSNVNTPGYKAQRVNFAEALAAEMRPAEREFNGQPVGERIDVGAGVIYPTIDTDYRQGIIRETENPFDLAIDGEGFFPVRTANGESRYTRVGNFELDSQGKLVNSDGYILEVKIPADAMDLYVDETGNITGFIDDEERVLGRVVVNDPEGEGYPVGPIDMDELGRPLDWNGDILPTAFAVPEGAEDVQISTEGILSATIDGSRQTLGQINIITFANPEGLVRDGDNLYFAPDAAGVTGDELVGTPGSQVEERTLGKLKTQSLEQSNVNLASAMTEMIQVQRAYQLNARMITNGDQMWSMANSLRR ), measured soluble on expression in E. coli is not soluble

----------
assay: soluble on expression in E. coli; label from the status in PepcDB or PDB records
test.readout: soluble on expression in E. coli

Sample answers from the record:
{"columns": ["residues", "soluble on expression in E. coli"],
 "data": [
  ["SSLENVVYNLVNAGHFDGRAGELPCAVIGEKVIAKIQNEDVVVFKNNTPFPTNVAVELFAKRSIRPHPELKLFRNLNIDVCWSHVLWDYAKDSVFCSSTYKVCKYTDLQCIESLNVLFDGRDNGALEAFKKCRNGVYINTTKIKSLSMIKGPQRADLNGVVVEKVGDSDVEFWFAVRKDGDDVIFSRTGSLEPSHYRSPQGNPGGNRVGDLSGNEALARGTIFTQSRLLSSFTPRSEMEKDFMDLDDDVFIAKYSLQDYAFEHVVYGSFNQKIIGGLHLLIGLARRQQKSNLVIQEFVTYDSSIHSYLITDENSGSSKSVCTVIDLLLDDFVDIVKSLNLKCVSKVVNVNVDFKDFQFMLWCNEEKVMTF", "soluble"],
  ["MAHHHHHHMCCTFWGLRLDNTCNNMKSVDIIKCDMCFFSHDGLFLIYTIINKIFVIQVKNLEMYRIYVESYKVDDIKLSSDNIHFLTLIKNKGCVCIYSFYKNNLINKICDYFQTYDHSFFLSKHNNIGIVKYEKKCLTIYNMNNPEKCLINIENIKYQNKGYCSNYINTIFACLVENKKDVNILLLSLFNYTIIKIIKCINFFPNDILFSKSDHIIAYSNKNRSLHIYSIDGDLLHVYKYAEDLGGNTKNVKKKKKKKKKSKFCAWKILKKSSFSFWITHCK", "not soluble"],
  ["MSLGLLDNVKKMVKKEATENPQQTSDDQKQVQAIHVTNGIDPKVIDAMNERMTKIENDLGKLSGEMEGQKKTLNDIKNELEGIKENVKMVVSLYELVSRDFNPFMDKTPEEIRGITDTLAEQVNNVKQLVEAAIKDLRELYGVPDIDQFIQMEEKKEGHHHHHH", "soluble"],
  ["MGSDKIHHHHHHMDFKQVQQSFIDYIRDPQRPVPVGVPLARMQVYRELFFNNVMGFVSNGFPVLKSLYTDEQWQTLVQAFFGQHDCKSPVFIDIAGEFLDFLQFQYSPMDSDPPFMLELAHYEWLELRVATAQQDDRQELIGKEDITYRNLCLAATASVAQYQYPVQQIRPDYRPSEPLVNPVYFCLYQDEVGEVGFLQLTPLSAQVLGYLTEKGQGTFDELTQWLAATYPQMPTETLTQGCLALLEQLATKSIVRGV", "not soluble"],
  ["MAAHSSAGLLDYVFPTIVSEYYNQAPTKEGYRFASEEPNGSKREEMGVIMNPGTPDEQLVVMGMYSSYDEKTDTETVTMYTADKDGYKARYQIKNRKLSPGALKSAAGLEHHHHHH", "not soluble"]
]}

// switching to the query sequence
For this sequence ( MGSDKIHHHHHHMVDDVFGNAIASATFRTHSDSLVVDSLATVDLTASAWPVFDIAASAINYPFLYADRDGTDLGALAVQQFDDVDQRLRTWMRGFVAGEPTDTLSLLKDISLGIASSISYQSREEEGTQAPLTTLDRGWGSCRDFAVLFAEAVRSLGFGARIVSGYLFNPNRALTGSTDSGSTHAWAEVFVPGAGWITLDPTNRSMGGANLIPVAVTRDIAHAVPVSGSFIGGSNGLPVNERGRRSQSNRPGLSGAAVERWIDVAQFSRCRAAPLVLNRPEPLTR ), measured soluble on expression in E. coli is not soluble

----------
assay: soluble on expression in E. coli; label from the status in PepcDB or PDB records

{"columns": ["residues", "soluble on expression in E. coli"],
 "data": [
  ["MKWKVLQLKTQEIKVNNLAKSSLHQPGSLVLRNRIRNNQTISNHQKVYITNLHKDKLKLNNLLRLMKSTNRHMPFRNLVLATGQELALLHNKRKRRKTLPLALFYSHLILL", "not soluble"],
  ["DPEDPAEDIIQTAGTIAHRGADRQDGGWGSGGPKFPQNGRLHALLRAYADGGQEDYLNVVEETLDVMADRGLYDHVGGGFHRYATDQQWAVPHFEKMLYDNAEIPRAFLAGYQAIGSERYASVVRETFEFVQRELQHPDGGFFSTLDAESAPHSESRSDSEQSSGESPRDDPDGETEEGLFYVWTPEQVHDAVDDETDADIFCDYYGVTEQGNFEGATVLAVRKPVPVLAEEYERSEDEITASLQRALNETFEARKDRPRPARDEKVLAGWNGLMIRALAEGAIVLDDQYADVAADALSFVREHLWDADAGRLNRRYKDDDVAIDGYLEDYAFLGRGALTLFEATGDVEHLAFAMDLGQAITEAFWDDEQGTLFFTPTGGESLVARPQELTD", "not soluble"]
]}

----------
assay: soluble on expression in E. coli; label from the status in PepcDB or PDB records
test.readout: soluble on expression in E. coli

{"columns": ["residues", "test.readout", "observed.value"],
 "data": [
  ["MTGAVCPGSFDPVTLGHVDIFERAAAQFDEVVVAILVNPAKTGMFDLDERIAMVKESTTHLPNLRVQVGHGLVVDFVRSCGMTAIVKGLRTGTDFEYELQMAQMNKHIAGVDTFFVATAPRYSFVSSSLAKEVAMLGGDVSELLPEPVNRRLRDRLN", "soluble on expression in E. coli", "soluble"],
  ["MTTNDTYEATYAIPMHCENCVNDIKACLKNVPGINSLNFDIEQQIMSVESSVAPSTIINTLRNCGKDAIIRGAGKPNSSAVAILETFQKYTIDQKKDTAVRGLARIVQVGENKTLFDITVNGVPEAGNYHASIHEKGDVSKGVESTGKVWHKFDEPIECFNESDLGKNLYSGKTFLSAPLPTWQLIGRSFVISKSLNHPENEPSSVKDYSFLGVIARSAGVWENNKQVCACTGKTVWEERKDALANNIK", "soluble on expression in E. coli", "soluble"]
]}
